system: Mycobacterium tuberculosis variant bovis BCG; assay: microbe, parasite or virus in culture; format: functional
measurement name: log10(MIC90) (log10 of the value in µM)

compound=Cc1ccc(-c2nnc(NC(=O)c3ccc(C#N)cc3)o2)cc1C measurement_name=log10(MIC90) measured_value=0.57
compound=c1ccc(COc2ccc(CN3CCC4(CC3)OCCc3sccc34)cc2)nc1 measurement_name=log10(MIC90) measured_value=0.81
compound=CS(=O)(=O)c1oc(-c2cccs2)nc1S(=O)(=O)c1ccc(F)cc1 measurement_name=log10(MIC90) measured_value=0.84
compound=CSc1cccc(-c2nnc(NC(=O)c3ccc4c(c3)CCCC4)o2)c1 measurement_name=log10(MIC90) measured_value=0.86
compound=c1cc(COc2ccc(C3=NCCN3)cc2)nc(COc2ccc(C3=NCCN3)cc2)c1 measurement_name=log10(MIC90) measured_value=0.79
compound=Cc1ccc(C2(c3ccc(C)cc3)NC(=O)N(CC(=O)N3CCC(Cc4ccccc4)CC3)C2=O)cc1 measurement_name=log10(MIC90) measured_value=0.79
compound=O=C(Nc1nnc(-c2ccc(F)cc2)o1)c1ccc(Cl)cc1 measurement_name=log10(MIC90) measured_value=0.84
compound=Cc1cc(Oc2cccc(CN3CCCC3)c2)nc(NCCc2ccccc2)n1 measurement_name=log10(MIC90) measured_value=0.95
compound=COc1ccc(-c2ccc(Nc3cccc(S(=O)(=O)CCNCCc4cccs4)c3)nc2)cn1 measurement_name=log10(MIC90) measured_value=0.86
compound=COCCCNC(=N)c1ccc(NC(=O)c2ccc(C(=O)Nc3ccc(C(=N)NCCCOC)cc3)cc2)cc1 measurement_name=log10(MIC90) measured_value=-0.30
compound=Cc1cc2c(NC(=O)NC3CCN(c4ccc(C(F)(F)F)cn4)CC3)cccc2c(C)n1 measurement_name=log10(MIC90) measured_value=0.49
compound=COc1ccccc1N1CCN(c2cccc3c2nc(/C=C/c2ccncc2)n3C2CCNCC2)CC1 measurement_name=log10(MIC90) measured_value=0.74
compound="N#Cc1cc(C(=O)COc2ccc(CC3SC(=O)NC3=O)cc2)ccc1N (stereo unspecified)" measurement_name=log10(MIC90) measured_value=0.04
compound=Cc1cc(NCCc2ccccc2)nc(NC(=N)Nc2ccc(Cl)cc2)n1 measurement_name=log10(MIC90) measured_value=0.30
compound=CC(=O)Nc1ccc(S(=O)(=O)Nc2ccc(N3CCCCC3)cc2)cc1 measurement_name=log10(MIC90) measured_value=0.72
compound=Cc1cccc(-c2nc(Nc3ccncn3)c3sccc3n2)n1 measurement_name=log10(MIC90) measured_value=-0.52
compound=Cc1ccc(-n2ncc3c(N4CCCNCC4)nc(C4CC4)nc32)cc1 measurement_name=log10(MIC90) measured_value=0.59
compound="CC(Oc1ccccc1)C(=O)Nc1nc(-c2ccccn2)cs1 (stereo unspecified)" measurement_name=log10(MIC90) measured_value=0.73
compound=O=C(CCC(=O)NNC(=O)c1ccco1)NNC(=O)c1ccco1 measurement_name=log10(MIC90) measured_value=0.93
compound=CN(CCOc1cccc(-c2ccc(C(=O)N3CCCC3)cc2)c1)Cc1ccc(F)cc1 measurement_name=log10(MIC90) measured_value=0.89
compound=Fc1ccc(-c2cccc3ccc(N4CCNCC4)nc23)cc1 measurement_name=log10(MIC90) measured_value=0.93

----------
test system: Mycobacterium tuberculosis variant bovis BCG; experiment: microbe, parasite or virus in culture; assay type: functional
// classify: if (MIC90 < 4 µM) true (1) else false (0)

molecule="CCc1nn2c(C3CCCNC3)ccnc2c1-c1ccc(OC)cc1 (configuration not stated)" class="true (1)"
molecule=O=C(c1ccc(-c2cccc(OCCN3CCC(c4ccccc4)CC3)c2)cc1)N1CCCC1 class="false (0)"
molecule="CC1CN(Cc2cccc(C(=O)NCc3ccc(F)c(-c4cccc(CN5CCN[C@@H](C)C5)c4)c3)c2)C(C)CN1 (some centres not stated)" class="false (0)"
molecule=CSc1ccc(CC(=O)Nc2nc(-c3ccccn3)cs2)cc1 class="false (0)"
molecule="CC1Sc2ccc(C(=O)N3CCCCC3c3nc4ccccc4s3)cc2NC1=O (configuration not stated)" class="false (0)"
molecule=N#Cc1ccc2c(c1)CCN(CCCSc1ccnc3cc(C(F)(F)F)ccc13)CC2 class="true (1)"
molecule=Cc1n[nH]c(C)c1S(=O)(=O)NCc1nc(NCCCc2ccccc2)c2ccccc2n1 class="false (0)"
molecule=O=C(C=Cc1cccs1)Nc1nc(-c2ccccn2)cs1 class="true (1)"
molecule=Cn1cc(C(=O)NCCc2ccccc2)c(=O)c2cc(S(=O)(=O)N3CCCC3)ccc21 class="false (0)"
molecule=CC(C)COc1ccc(C(=O)Nc2ccc(N3CCN(C)CC3)cc2)cc1 class="false (0)"
molecule=CC(=CC(=O)NC12CC3CC(CC(C3)C1)C2)c1cccc(Cl)c1 class="false (0)"
molecule=COc1ccc(Nc2ccccc2N)cc1Cl class="true (1)"
molecule="CC(C)C(NC(=O)CCc1nc2ccccc2oc1=O)c1nc2ccccc2[nH]1 (configuration not stated)" class="false (0)"
molecule="Cc1cc(/C=C/c2cccc(C(=O)O)c2)cc(Cl)c1OCC1CCCNC1 (configuration not stated)" class="false (0)"
molecule=Cc1ccc2nc(N(CCCn3ccnc3)C(=O)C=Cc3cccs3)sc2c1 class="false (0)"
molecule=COc1ccc(CCNc2cc(-c3ccccc3)nc3ncnn23)cc1 class="true (1)"
molecule=CN(C)CCN(Cc1ccc(-c2cccc(CN)c2)cc1)C(=O)CCC1CCCC1 class="false (0)"
molecule=Cc1ccc(Nc2ccc(C(=O)O)cc2N)cc1 class="false (0)"
molecule="Cc1cc(C)n(Cc2ccc(C(=O)NC3CCC(C(C)(C)C)CC3)cc2)n1 (configuration not stated)" class="false (0)"
molecule=N#Cc1ccc(-c2ccc(OCC(=O)NNC(=O)c3ccco3)cc2)cc1 class="true (1)"
molecule="CC(C)n1ncc2c(C(=O)NCC(c3cccs3)N3CCOCC3)cc(-c3ccccc3)nc21 (configuration not stated)" class="true (1)"

----------
tested on: Mycobacterium tuberculosis variant bovis BCG; assay: microbe, parasite or virus in culture; format: functional
measurement name: MIC90 (µM)

compound=O=C(Cc1ccc(Cl)c(Cl)c1)Nc1nc(-c2ccccn2)cs1 measurement_name=MIC90 measurement_units=µM measured_value=3.2
compound=O=C(NC1CCNCC1)c1nn(-c2ccc(Cl)cc2)c(=O)cc1N1CCC(Cc2ccccc2)CC1 measurement_name=MIC90 measurement_units=µM measured_value=7.6
compound="Cn1c(=O)c2c([S+](C)[O-])snc2n(C)c1=O (stereo not given)" measurement_name=MIC90 measurement_units=µM measured_value=5.6
compound=Cc1cc(NC(=O)COc2ccc(Cl)cc2)n(-c2nc(C)c(C)c(=O)[nH]2)n1 measurement_name=MIC90 measurement_units=µM measured_value=4.8
compound=c1ccc(Cc2nnc(Sc3ccnc(N4CCN(c5ccncc5)CC4)n3)n2CCCN2CCOCC2)cc1 measurement_name=MIC90 measurement_units=µM measured_value=2.7

----------
system: Mycobacterium tuberculosis variant bovis BCG; experiment: microbe, parasite or virus in culture; format: functional
I'd appreciate it if you could label each record using MIC90 and these ranges: b0 = under 4 µM, b1 = from 4 µM up to 8 µM, b2 = 8 µM and over

compound=O=C(NC1CCCCC1)c1cc2cc(OC(F)(F)F)ccc2[nH]1 class=b1
compound=O=C(Nc1nnc(-c2ccc(F)cc2)o1)c1ccc(C(F)(F)F)cc1 class=b1
compound="Cc1ccc2[nH]c(C3CCCNC3)c(-c3ccncc3)c2c1 (stereo not drawn)" class=b2
compound=Cc1cc2ncn(-c3nccc(N4CCN(Cc5ccncc5)CC4)n3)c2cc1C class=b0
compound=COCCNc1nc(N2CCCC2)c2c(c1C#N)CCN(C)C2 class=b0
compound=Cc1nn(-c2nc(-c3ccccn3)nc3ccsc23)c(N)c1C#N class=b1
compound=O=C(CCc1ccsc1)Nc1nc(-c2ccccn2)cs1 class=b2
compound=c1ccc(-c2csc(Nc3nc4cc5c(cc4s3)OCO5)n2)nc1 class=b0
compound=CCCNc1cc(-c2ccccc2)nc(-n2nc(C)cc2C)n1 class=b1
compound=O=c1c2snc(-c3ccc(F)cc3)c2ncn1Cc1ccc(F)cc1 class=b2
compound=Cc1cc(C)c2nc(N3CCN(C)CC3)cc(C)c2c1 class=b2
compound=Cc1cnc(CNCc2ccc(-c3ccc(C(=O)NCCc4ccccc4)c(F)c3)cc2)cn1 class=b1
compound=N#Cc1nc(-c2ccc(F)cc2)oc1S(=O)(=O)c1ccc(Br)cc1 class=b0
compound=COc1ccc2nc(C)cc(OCC(=O)NCc3ccccc3)c2c1 class=b0
compound=Cc1cc(C)c2nc3c(cc2c1)CN(Cc1ccco1)C(=O)O3 class=b2
compound=Cc1nc(-c2cccc(C(F)(F)F)c2)nc(N2CCNCC2)c1C class=b0
compound=Cc1cc(C)cc(Oc2c(C(C)C)c(=O)[nH]c(=O)n2Cc2cc(N)nc(F)c2)c1 class=b2
compound=CCSc1ccc(C(=O)Nc2nc(-c3ccccn3)cs2)cc1 class=b0
compound=CN(C)CCCC(=O)Nc1[nH]nc2cnc(-c3cncc(-c4ccccc4)c3)cc12 class=b2
compound=COc1ccc(-c2nsc(SCC(=O)N3CCCC3)n2)cc1 class=b1
compound=CN(Cc1ccccc1)c1ccc2nnc(-c3ccccc3)n2n1 class=b2
